test: melting temperature; fluorescence melt of hairpins on a sequencing array, two-state fit, raised by 9.35 °C to match UV melts; conditions: sodium 0.088 M
Readout: Tm (°C)
Use °C as the unit, but write only the number.

Please report Tm for the following sequence: GTCAGAGGAAACTCCGAC (((.(((....))).)))
34.7

Please report Tm for the following sequence: GCGATAACTCGC ((((....))))
45.9

Please report Tm for the following sequence: GGTGCCACGAAAGTGACC (((..(((....))))))
35.5

Please report Tm for the following sequence: GACAACGAAAGTTCGTC ((((((....))).)))
42.6

Please report Tm for the following sequence: GCCAGCGAAAGCTTGGC ((((((....))).)))
63.9

Please report Tm for the following sequence: GTCAGCGAAAGCTACGAC ((((((....)))..)))
41

Please report Tm for the following sequence: GTGTTCACGAAAGTGCAC (((..(((....))))))
42.3

Please report Tm for the following sequence: CGTTCGGAAACGAGAACG ((((((....)))..)))
41.2

Please report Tm for the following sequence: GATCGAAAGTTCGATC ((((((....))))))
50.4

Please report Tm for the following sequence: GTGCCGGGAAACTGGCAC (((((.(....).)))))
66

Please report Tm for the following sequence: GATCCTAGATAGGATC ((((((....))))))
50.8

Please report Tm for the following sequence: GCCAACGAAAGTTTGGGC ((((((....)))..)))
46
